B1: TPR t1 (parent)
chain: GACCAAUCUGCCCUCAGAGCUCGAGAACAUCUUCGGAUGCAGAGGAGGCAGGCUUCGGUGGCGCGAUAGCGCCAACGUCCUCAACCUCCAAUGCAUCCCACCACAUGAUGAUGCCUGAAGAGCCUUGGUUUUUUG

Variants of: B1
Test: polymerase ribozyme fitness, log enrichment relative to wild type (log ratio); higher = more active; in vitro selection for triplet polymerase activity

# mutation key, polymerase ribozyme fitness (log ratio)
rows = [
    ("A90G U92G C123A", -1.06),
    ("A46U C64U C101U U132C", -1.55),
    ("G71A U92A C94U C115G", -4.8),
    ("G36C U129A", -2.27),
    ("G23C C56A U59G G113A", -6.74),
    ("G17U C40A G42A C49A", -6.46),
    ("G10U C70A", -1.66),
    ("G60U G110C", -2.76),
    ("C12A G36U", -1.6),
    ("C73A G128A", -2.12),
    ("C12U G60C", 0.537),
]
